For each entry below, report its growth value.
- Tested on: CCRF-CEM leukemia
- ASSAY_PROCEDURE: NCI-60 one-dose screen, 48 h (100 = growth as untreated, 0 = no growth, -100 = all killed)
- COND: 10 µM unless noted
The panel holds about 83,000 compounds, 20% with a hit somewhere; the sample as a whole holds those more often.
Answers are plain numbers, in %.

Sample records with growth:
| COMPOUND_STRING | growth [%] |
| --- | --- |
| COc1cccc(CCNc2ncnc3c2ncn3Cc2nnc3c4ccccc4c(Cl)nn23)c1 | 34 |
| C#CC#CC#CC#CC#CC#CC#CC#CC[C@@H]1OC[C@@H](COC(=O)O[C@@H](C(=O)O[C@H]2C[C@@]3(O)[C@@H](OC(=O)c4ccccc4)[C@@H]4[C@]5(OC(C)=O)CO[C@@H]5C[C@H](O)[C@@]4(C)C(=O)[C@H](OC(C)=O)C(=C2C)C3(C)C)[C@@H](NC(=O)c2ccccc2)c2ccccc2)O1 | 6.05 |

Next compound, growth to be filled in.
Identify the reported growth for the following entry. "Oc1c(CN2CCC(N3CCCCC3)CC2)cc(Cc2cc(CN3CCC(N4CCCCC4)CC3)c(O)c3ncccc23)c2cccnc12"
6.54
